- measurement_protocol: self-splicing fitness, log relative to wild type (ln ratio); higher = more splicing; Tetrahymena group I intron in knt gene, E. coli kanamycin selection, DiMSum; sequences stand for … in CUCUCU…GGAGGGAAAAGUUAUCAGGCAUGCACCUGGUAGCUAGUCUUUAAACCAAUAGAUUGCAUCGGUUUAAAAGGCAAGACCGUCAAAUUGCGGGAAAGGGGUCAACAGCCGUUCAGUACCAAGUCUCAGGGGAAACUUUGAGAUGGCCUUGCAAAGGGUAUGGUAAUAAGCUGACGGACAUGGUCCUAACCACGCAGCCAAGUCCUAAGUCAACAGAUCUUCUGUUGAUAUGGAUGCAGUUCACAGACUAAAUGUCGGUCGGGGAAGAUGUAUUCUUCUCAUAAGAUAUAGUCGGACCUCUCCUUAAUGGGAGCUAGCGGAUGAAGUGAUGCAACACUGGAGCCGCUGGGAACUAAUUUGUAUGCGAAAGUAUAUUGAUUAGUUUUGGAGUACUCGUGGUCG;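 further: selection with 25 µg/mL kanamycin versus none on LB agar overnight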
- condition: 30 °C
Would you mind labelling by self-splicing fitness (ln)? At or over -2 is Fulfilled, under is Not fulfilled.

Example cases with answers are listed next.
UUAAAGCAAUAUUACGUGAU: Not fulfilled
AUGCAGCAAUAUUACGUACA: Fulfilled
UGAAAGCAAUAUUACGAAGU: Not fulfilled
UCUAAGCAAUAUUACGUUGC: Not fulfilled

stdin: Exam item: decide whether the reported self-splicing fitness (ln) for CCAAAGCAAUAUUACGCCGG is at least -2.
stdout: Not fulfilled

stdin: Lookup ACACAGCAAUAUUACGUACA
stdout: Fulfilled
